// data source = patent US20220259593A1

# System: K562 CRISPRi cells
# protocol: Constant region variant library pooled growth screen, K562
# Assay type: cell-based, human
# test context: sgRNA constant region variants; activity relative to the un-modified constant region cr995
metric name: Mean relative activity

cr823 (nucleic acid, listed as DNA, chemistry not fully specified) guide: GTTTAAGAGCTAAGCTGGAAACAGCATAGCAAGTTTAAATAAGGCTAGTCCGTTATCAACTAGAAATAGTGGCACTGAGTCAGTGCT: 0.936
cr102 (nucleic acid, listed as DNA, chemistry not fully specified) guide: GTTTAAGAGCTAAGCTGGAAACAGCATAGCAAGTTTAAATAAGGCTAGTCCGTTATCAATTTGAAAAAATGGAACCGAGTCGGTTCT: 0.9651
cr503 (nucleic acid, listed as DNA, chemistry not fully specified) guide: GTTTAAGAGCTAAGCTGGAAACAGCATAGCAAGTTTAAATAAGGCTAGTCCGTTATCAACTTGAAAAAGTGGCACCGAGTCGGGGCT: 0.9079
cr822 (nucleic acid, listed as DNA, chemistry not fully specified) guide: GTTTAAGAGCTAAGCTGGAAACAGCATAGCAAGTTTAAATAAGGCTAGACCGTTATCAACTTGAACAAGTGGCACCGAGTCGGTGCT: 0.9333
cr307 (nucleic acid, listed as DNA, chemistry not fully specified) guide: GTTTAAGAGCTAAGCTGGAAACAGCATAGCAAGTTTAAATAAGGCTAGTCCGTTATCAACTTGAAAAAGTGGCACCAAGTTGGTGCT: 0.9746
cr838 (nucleic acid, listed as DNA, chemistry not fully specified) guide: GTTTAAGAGCTAAGCTGGAAACAGCATAGCAAGTTTAAATAAGGCCAGTCCGTTATCAACTTGAAAAAGTGGCACCGAGTCGGTGCT: 0.9187
cr926 (nucleic acid, listed as DNA, chemistry not fully specified) guide: GTTTAAGAGCTAAGCTGGAAACAGAATAGCAAGTTTAAATAAGGCTAGTCCGTTATCAACTTGAAAAAGTGGCACCGAGTCGGTGCT: 0.9811
